FYI, the data here is from patent US9562035B2.

target.entity: FASN Keto-reductase Domain (Homo sapiens, UniProt P49327)
Construct: 10 μL hFASN enzyme (full length, 300 ng, purified in house) and 360 μM NADPH; made in house
Sequence (P49327 whole entry, the tested form may be a part): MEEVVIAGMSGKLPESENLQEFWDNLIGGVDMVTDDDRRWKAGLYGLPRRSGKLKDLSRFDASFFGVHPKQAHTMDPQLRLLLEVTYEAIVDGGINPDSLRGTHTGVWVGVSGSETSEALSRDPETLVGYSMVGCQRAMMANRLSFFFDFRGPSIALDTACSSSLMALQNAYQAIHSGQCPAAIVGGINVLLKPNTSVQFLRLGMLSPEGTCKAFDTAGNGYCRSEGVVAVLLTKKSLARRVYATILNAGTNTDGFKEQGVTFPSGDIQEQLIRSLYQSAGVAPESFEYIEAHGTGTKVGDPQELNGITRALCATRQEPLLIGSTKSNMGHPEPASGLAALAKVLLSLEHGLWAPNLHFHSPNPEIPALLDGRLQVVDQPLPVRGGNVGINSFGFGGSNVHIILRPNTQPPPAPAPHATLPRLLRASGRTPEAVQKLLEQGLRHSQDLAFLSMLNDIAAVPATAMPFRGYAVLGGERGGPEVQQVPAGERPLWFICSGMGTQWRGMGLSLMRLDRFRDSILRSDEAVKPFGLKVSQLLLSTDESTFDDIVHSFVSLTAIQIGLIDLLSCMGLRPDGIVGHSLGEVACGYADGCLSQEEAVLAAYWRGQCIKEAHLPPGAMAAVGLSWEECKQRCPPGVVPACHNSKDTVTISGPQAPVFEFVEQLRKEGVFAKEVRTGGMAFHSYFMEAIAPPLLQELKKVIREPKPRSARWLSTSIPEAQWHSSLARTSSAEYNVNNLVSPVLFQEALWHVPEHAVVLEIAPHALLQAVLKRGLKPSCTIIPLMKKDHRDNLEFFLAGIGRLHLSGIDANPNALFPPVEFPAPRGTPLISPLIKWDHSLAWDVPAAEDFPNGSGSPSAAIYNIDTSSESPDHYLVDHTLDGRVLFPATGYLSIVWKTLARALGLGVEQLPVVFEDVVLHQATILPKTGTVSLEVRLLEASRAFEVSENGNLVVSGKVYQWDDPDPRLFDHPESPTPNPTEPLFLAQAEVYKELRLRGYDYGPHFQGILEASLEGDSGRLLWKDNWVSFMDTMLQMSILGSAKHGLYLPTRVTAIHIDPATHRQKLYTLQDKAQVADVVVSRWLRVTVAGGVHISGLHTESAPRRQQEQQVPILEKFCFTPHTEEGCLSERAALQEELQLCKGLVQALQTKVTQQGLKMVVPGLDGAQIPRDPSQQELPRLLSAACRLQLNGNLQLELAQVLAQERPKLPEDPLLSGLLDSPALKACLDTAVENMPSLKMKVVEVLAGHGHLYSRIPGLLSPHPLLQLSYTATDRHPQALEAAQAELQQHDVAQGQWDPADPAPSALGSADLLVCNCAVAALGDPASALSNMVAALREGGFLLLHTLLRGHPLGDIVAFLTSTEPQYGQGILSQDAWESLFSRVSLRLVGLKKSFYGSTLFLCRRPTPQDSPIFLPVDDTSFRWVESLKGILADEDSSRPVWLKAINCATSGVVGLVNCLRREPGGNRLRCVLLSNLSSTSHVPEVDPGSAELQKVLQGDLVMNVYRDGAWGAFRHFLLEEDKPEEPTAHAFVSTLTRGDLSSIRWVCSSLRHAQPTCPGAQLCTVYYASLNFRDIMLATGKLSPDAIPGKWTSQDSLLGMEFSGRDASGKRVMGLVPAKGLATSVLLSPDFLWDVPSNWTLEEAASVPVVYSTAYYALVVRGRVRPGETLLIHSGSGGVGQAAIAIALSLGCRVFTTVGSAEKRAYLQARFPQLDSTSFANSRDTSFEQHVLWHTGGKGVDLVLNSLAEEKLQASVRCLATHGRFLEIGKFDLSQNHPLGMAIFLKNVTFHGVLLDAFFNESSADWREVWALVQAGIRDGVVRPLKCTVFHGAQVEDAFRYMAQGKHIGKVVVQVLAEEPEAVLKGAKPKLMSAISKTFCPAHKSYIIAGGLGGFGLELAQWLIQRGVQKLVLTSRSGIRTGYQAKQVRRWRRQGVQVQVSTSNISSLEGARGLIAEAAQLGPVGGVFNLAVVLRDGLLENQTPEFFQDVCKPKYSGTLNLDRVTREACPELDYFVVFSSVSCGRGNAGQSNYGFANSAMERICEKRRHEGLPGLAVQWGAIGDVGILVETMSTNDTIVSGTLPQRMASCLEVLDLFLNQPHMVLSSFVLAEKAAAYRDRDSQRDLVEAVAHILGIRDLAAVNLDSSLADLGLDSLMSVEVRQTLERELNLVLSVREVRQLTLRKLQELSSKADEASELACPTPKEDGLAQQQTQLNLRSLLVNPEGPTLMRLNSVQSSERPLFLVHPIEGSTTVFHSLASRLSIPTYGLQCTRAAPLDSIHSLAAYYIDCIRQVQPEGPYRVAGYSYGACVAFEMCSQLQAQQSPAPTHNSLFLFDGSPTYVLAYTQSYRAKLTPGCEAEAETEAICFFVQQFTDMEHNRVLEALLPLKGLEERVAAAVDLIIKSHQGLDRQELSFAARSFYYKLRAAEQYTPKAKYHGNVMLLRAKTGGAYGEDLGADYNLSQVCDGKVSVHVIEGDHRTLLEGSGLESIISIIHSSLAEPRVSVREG
assay.procedure: Fatty Acid Synthase Keto-Reductase Domain (FASN KR) Inhibition
Type: biochemical
measurement.parameters: mean where tested more than once; read-out: FASN K-R Domain pIC50 (converted)
endpoint.name: IC50 (nM)

I: Cc1ccc(C(=O)N2CC(c3ccc(-c4cnn(C)c4)cc3)C2)cc1NC(=O)C1CC1
II: Cc1ccc(C(=O)N2CCC(c3ccc(-c4cnn(CCN(C)C)c4)cc3)CC2)cc1NC(=O)c1ccc(NC(C)C)nc1
III: Cc1ccc(C(=O)N2CC(c3ccc(-c4cnn(C)c4)cc3)C2)cc1NC(=O)c1cnc(NC(C)C)nc1
IV: Cc1ccc(C(=O)N2CCC(c3ccc(-c4cnn(C)c4)cc3)CC2)cc1NC(=O)[C@H]1CCCN1
IN: Falling order of IC50, please. Put the labels in the requested order and list them out.
OUT: II, IV, I, III
(II: 1230 nM, IV: 741 nM, I: 110 nM, III: 37.2 nM)

----------
target.entity: hFASN enzyme (full length) (Homo sapiens)
Construct: 10 μL hFASN enzyme (full length, 300 ng, purified in house); made in house
assay.procedure: Fatty Acid Synthase (FASN) Inhibition Scintillation Proximity Assay
Assay type: biochemical
measurement.parameters: read-out: FASN % Effect @1E−05M
endpoint.name: inhibition at 10 µM (%)

>  <molecule>
Cc1ccc(C(=O)N2CCC(c3ccc(-c4cnn(C)c4)cc3)C2)cc1NC(=O)c1ccc(Cl)nc1 (stereo not shown)

>  <unit.of.measure>
%

>  <inhibition at 10 µM>
97

$$$$
>  <molecule>
COc1cccc(C(=O)Nc2cc(C(=O)N3CCC(c4ccc(-c5cnn(C)c5)cc4)CC3)ccc2C)c1

>  <unit.of.measure>
%

>  <inhibition at 10 µM>
100

$$$$
>  <molecule>
Cc1ccc(C(=O)N2CCC(c3ccc(-c4cnn(C)c4)cc3)CC2)cc1NC(=O)c1ccc(N(C)C(C)C)nc1

>  <unit.of.measure>
%

>  <inhibition at 10 µM>
100

$$$$
>  <molecule>
Cc1ccc(C(=O)N2CCC(c3ccc(-c4cnn(C)c4)cc3)CC2)cc1NC(=O)C1CCN(C(C)C)CC1

>  <unit.of.measure>
%

>  <inhibition at 10 µM>
111

$$$$
>  <molecule>
Cc1ccc(C(=O)N2CCC(c3ccc(-c4cnn(C)c4)cc3)CC2)cc1NC(=O)c1cnc(NC(C)C)nc1

>  <unit.of.measure>
%

>  <inhibition at 10 µM>
110

$$$$

P: COc1ccc(C(=O)N2CCC(c3ccc(-c4cnn(C)c4)cc3)CC2)cc1NC(=O)c1ccc(NC(C)C)nc1
Q: Cc1ccc(C(=O)N2CCC(c3ccc4c(c3)C(C)N(C)C4=O)CC2)cc1NC(=O)c1ccc(Cl)nc1 (stereo not shown)
IN: When their inhibition at 10 µM values are compared, which is larger, P or Q ? Mark your selection by writing its label.
OUT: P
(P: 112%, Q: 22%)

----------
Test system: A2780 ovarian cells
assay.procedure: A2780 Ovarian Cell Proliferation Assay in Lipid Reduced Medium, without Palmitate
Assay type: cell-based
measurement.parameters: Homo sapiens, A2780; lipid reduced medium, without palmitate, 96 h, MTT; read-out: Proliferation A2780 w/o Palmitate pIC50 (converted)
endpoint.name: IC50 (µM)

>  <compound>
Cc1ccc(C(=O)N2CCC(c3ccc(-c4cnn(C)c4)cc3)CC2)cc1NC(=O)C1CCN(Cc2ccccc2)CC1

>  <unit.of.measure>
µM

>  <measured>
0.0339

$$$$
>  <compound>
Cc1ccc(C(=O)N2CCC(c3ccc(-c4cnn(C)c4)cc3)CC2)cc1NC(=O)C1CN(C(C)C)C1

>  <unit.of.measure>
µM

>  <measured>
0.151

$$$$
>  <compound>
Cc1ccc(C(=O)N2CC(c3ccc(-c4cnn(C)c4)cc3)C2)cc1NC(=O)c1ccc(NC(C)C)nc1

>  <unit.of.measure>
µM

>  <measured>
0.0851

$$$$
>  <compound>
CC(C)Nc1ccc(C(=O)Nc2cc(C(=O)N3CCC(c4ccc(-c5cnn(C)c5)cc4)CC3)ccc2Cl)cn1

>  <unit.of.measure>
µM

>  <measured>
0.0759

$$$$
>  <compound>
COc1ccc(C(=O)N2CC(c3ccc(-c4cnn(C)c4)cc3)C2)cc1NC(=O)c1ccc(NC(C)C)nc1

>  <unit.of.measure>
µM

>  <measured>
0.0589

$$$$

A: Cn1cc(-c2ccc(C3CCN(C(=O)c4ccc(OCc5ccccc5)c(NC(=O)c5ccc(Cl)nc5)c4)CC3)cc2)cn1
B: COc1ncccc1C(=O)Nc1cc(C(=O)N2CCC(c3ccc(-c4cnn(C)c4)cc3)CC2)ccc1C
C: Cc1ccc(C(=O)N2CC[C@H](c3ccc(-c4ccnn4C)cc3)[C@H](C)C2)cc1NC(=O)c1ccc(Cl)nc1 (racemic)
IN: Arrange the 3 entries by IC50 so the values rise. Please write the labels in the order that was asked for.
OUT: B, A, C

a: Cc1ccc(C(=O)N2CCC(c3ccc(-c4cnn(C)c4)cc3)CC2)cc1NC(=O)c1cnccc1Cl
b: CCCCCN1CCC(C(=O)Nc2cc(C(=O)N3CCC(c4ccc(-c5cnn(C)c5)cc4)CC3)ccc2C)C1 (stereo not shown)
c: Cc1ccc(C(=O)N2CCC(c3ccc(-c4cnn(C)c4)cc3)CC2)cc1NC(=O)c1ccncc1F
d: CN(c1ccc(C(=O)N2CCC(c3ccc(-c4cnn(C)c4)cc3)CC2)cc1NC(=O)C1CC1)C1CC1
e: Cc1ccc(C(=O)N2CCC(c3ccc(-c4cnn(C)c4)cc3)CC2)cc1NC(=O)C1CCN(C)CC1
IN: Order the records so the highest IC50 appears first and the lowest last. Labels, ranked as asked.
OUT: d, a, b, e, c
(d: 5.13 µM, a: 0.537 µM, b: 0.191 µM, e: 0.0776 µM, c: 0.024 µM)

a: COCCNc1ccc(C(=O)N2CCC(c3ccc(-c4cnn(C)c4)cc3)CC2)cc1NC(=O)C1CC1
b: CC(C)Nc1ccc(C(=O)Nc2cc(C(=O)N3CC(c4ccc(-c5cnn(C)c5)cc4)C3)ccc2Cl)cn1
c: Cc1ccc(C(=O)N2CCC(c3ccc(-c4cnn(C)c4)cc3)CC2)cc1NC(=O)c1ccc(C(C)C)cc1
d: Cc1ccc(C(=O)N2CCC(c3ccc(-c4cnn(C)c4)cc3)CC2)cc1NC(=O)[C@H]1CCCN1C
IN: Provide the items ranked by increasing IC50. A ranking is expressed here by listing the labels in the requested order.
OUT: b, c, d, a
(b: 0.0562 µM, c: 0.0891 µM, d: 0.195 µM, a: 0.427 µM)

P: CCCCC(C)N1CC(C(=O)Nc2cc(C(=O)N3CCC(c4ccc(-c5cnn(C)c5)cc4)CC3)ccc2C)C1 (stereo not shown)
Q: CCc1ccc(C(=O)N2CCC(c3ccc(-c4cnn(C)c4)cc3)CC2)cc1NC(=O)c1ccc(Cl)nc1
IN: Would you mind telling me which has the lower recorded IC50 between P and Q ? Record your answer as the label of the chosen record.
OUT: Q

P: CSc1ccc(C(=O)Nc2cc(C(=O)N3CCC(c4ccc(-c5cnn(C)c5)cc4)CC3)ccc2C)cc1
Q: Cc1ccc(C(=O)N2CC[C@H](c3ccc(-n4ccnc4)cc3)[C@@H](C)C2)cc1NC(=O)c1ccc(Cl)nc1 (racemic)
IN: Return label of the item with the larger IC50. Candidates: P , Q . Answer with the label corresponding to your selection.
OUT: Q
(Q: 0.204 µM, P: 0.0263 µM)

a: CCCCN1CCC(C(=O)Nc2cc(C(=O)N3CCC(c4ccc(-c5cnn(C)c5)cc4)CC3)ccc2C)CC1
b: COc1ccc(-c2ccc(C3CCN(C(=O)c4ccc(C)c(NC(=O)c5ccc(NC(C)C)nc5)c4)CC3)cc2)cc1
IN: So which one has the bigger IC50 here, a or b ? Could you answer with the label of the item you picked?
OUT: b

----------
System: A2780 ovarian cells
assay.procedure: A2780 Ovarian Cell Proliferation Assay in Lipid Reduced Medium, without Palmitate
Format: cell-based
measurement.parameters: Homo sapiens, A2780; lipid reduced medium, without palmitate, 96 h, MTT; read-out: Proliferation A2780 w/o Palmitate pIC50 (converted)
endpoint.name: IC50 (µM)

>  <compound>
Cc1ccc(C(=O)N2CCC(c3ccc(-c4cnn(C)c4)cc3)CC2)cc1NC(=O)c1ccccc1Cl [Compound 96]

>  <target.entity>
A2780 ovarian cells

>  <IC50, µM>
0.145

$$$$
>  <compound>
Cc1ccc(C(=O)N2CCC(c3ccc(-c4cnn(C5CCC5)c4)cc3)CC2)cc1NC(=O)c1ccc(NC(C)C)nc1 [Compound 248]

>  <target.entity>
A2780 ovarian cells

>  <IC50, µM>
0.0355

$$$$
>  <compound>
Cc1ccc(C(=O)N2CCC(c3ccc(-c4cnn(C)c4)cc3)CC2)cc1NC(=O)[C@@H]1CCCN1 [Compound 171]

>  <target.entity>
A2780 ovarian cells

>  <IC50, µM>
1.2

$$$$

P: Cc1ccc(C(=O)N2CCC(c3ccc4c(c3)NC(=O)CC4)CC2)cc1NC(=O)c1ccc(NC(C)C)nc1 [Compound 35]
Q: CCCCCCN1CC(C(=O)Nc2cc(C(=O)N3CCC(c4ccc(-c5cnn(C)c5)cc4)CC3)ccc2C)C1 [Compound 243]
R: Cc1ccc(C(=O)N2CCC(c3ccc(-c4cnn(C)c4)cc3)CC2)cc1NC(=O)C1CC1 [Compound #89]
IN: Ascending by IC50, please. Provide the labels, sequenced as the question asks.
OUT: R, Q, P

I: Cc1ccc(C(=O)N2CCC(c3ccc(-c4cnn(C)c4)cc3)CC2)cc1NC(=O)c1ccc(N(C)C)cn1 [Compound 119]
II: Cc1ccc(C(=O)N2CC(c3ccc(-c4ccnn4C)cc3)C2)cc1NC(=O)c1ccc(N2CCOCC2)nc1 [Compound 58]
IN: Between I and II , which one shows the larger IC50 value? Give the chosen item's label as your response.
OUT: I
(I: 0.191 µM, II: 0.0182 µM)
